Entries and their measured inhibition follow.
assay: growth suppression of yeast trafficking mutant, preliminary HTS, modulators of trafficking downstream of Golgi apparatus project, 1536-format plate, OD 615 nm (AID 637); conditions: yeast transport mutant growth, absorbance 615 nm, 18 h; stronger effect = higher value; further: test concentration not given here
readout-type: inhibition (%)

[
  {
    "given-smiles": "Cc1nc(C)c2c(c1C(F)(F)F)-c1ccccc1C2(F)F",
    "readout-type": "inhibition",
    "val": -5.08
  },
  {
    "given-smiles": "C/C(Nc1cccc(F)c1)=C(/C#N)C(N)=O",
    "readout-type": "inhibition",
    "val": -5.64
  },
  {
    "given-smiles": "COc1ccccc1-n1cnc2cc(NS(=O)(=O)c3ccccc3)ccc21",
    "readout-type": "inhibition",
    "val": -6.55
  }
]
